Tested on: BT-549 breast
Assay: NCI tumour cell line growth inhibition, 48 h
Attribute measured: GI50

In the examples that follow, each entry is paired with its recorded GI50.
* N#CC(C#N)=CN1CCN(C(=O)c2ccco2)C1=S | 6850 nM
* COc1cc2cc(Oc3ccc(NC(=O)Nc4ccc(Cl)c(C(F)(F)F)c4)cc3)c(C)nc2cc1OCCN1CCCCC1 | 1790 nM
* Fc1ccc2[nH]cc(Cc3c[nH]c4ccc(F)cc34)c2c1 | 13900 nM

Tell me measured GI50 for CC12CCC=CC1CCC1C2CCC2(C)C(c3ccc(=O)oc3)CCC12O (configuration not stated) please. 39.1 nM

Recall and state the measured GI50 for `COc1ccc(C(=O)/C=C/c2ccc(Cl)cc2)cc1S(=O)(=O)Nc1c(N)nc(SC)[nH]c1=O` . 1630 nM

Please list GI50 recorded for the molecule `CC(C)(O)c1ccc(N2CCN(c3nnc(Cc4ccccc4)c4ccccc34)CC2)nc1` 6280 nM

Input `O=C(CCN1CCCC1)Nc1ccc2c(NCc3ccc(F)cc3)c3ccccc3nc2c1` , output reported GI50. 1200 nM

====

Listed here are compounds together with their documented TGI.
Test system: SF-539 CNS
Assay: NCI tumour cell line growth inhibition, 48 h

# example entries with known answers
- COc1ccc(Cn2nc(-c3cc(OC)c(OC)c(OC)c3)c3c2CCc2cnoc2-3)cc1OC: 36.1 µM
- O=C(c1ccc(Cl)cc1Cl)N(C(=O)N1CCC(c2ccccc2)CC1)c1ccccc1: > 100 µM
- O=S1(=O)c2cnccc2NC(=NCc2cccc3ccccc23)N1c1ccccc1: > 100 µM
- c1ccc2[nH]c(-c3ccc(N4CCN(c5ccc(-c6nc7ccccc7[nH]6)cc5)CC4)cc3)nc2c1: > 100 µM

Could you please provide reported TGI for `CS(=O)(=O)CC1=Nc2nnc(CCCCCCCc3nnc4n3C(=O)C(CS(C)(=O)=O)=N4)n2C1=O` ? Thanks! > 100 µM

====

System: T-47D breast
Assay: NCI tumour cell line growth inhibition, 48 h; in the data active = GI50 below about 0.43 µM; inactive = the rest
# output must be one of yes (1) = active, no (0) = inactive

Solved cases below.
* CCN(CC)c1ccc(/C=C/c2cc(C)c3ccccc3n2)cc1 | no (0)
* CC12CCC=CC1CCC1C2CCC2(C)C(c3ccc(=O)oc3)CCC12O (stereo unspecified) | yes (1)
* CSc1nnc(CCSc2ccnc3c(C(F)(F)F)cccc23)o1 | no (0)
* CN(C)CCCNC(=O)c1cc(NC(=O)CCNS(=O)(=O)c2ccc3c(c2)C(=O)c2ccccc2C3=O)cn1C | no (0)
* C=CCC(N[C@H](CO)C(C)C)c1cn(C(=O)OCC)c2ccccc12 (stereo partly specified) | no (0)

Identify the outcome logged in this assay for the compound shown: `N#CSc1ncnc2nc[nH]c12` no (0)

In this assay, the call recorded for `O=S(=O)(c1ccc(NC(=S)NCc2cccnc2)cc1)N1CCCCC1` was what? no (0)

Recorded call for `COc1cccc(OC(=O)c2ccccc2Nc2ccnc(C(F)(F)F)c2)c1` ? no (0)

What did this assay record as the result for `CC(C)(O)c1ccc(N2CCN(c3nnc(Cc4ccccc4)c4ccccc34)CC2)nc1` ? no (0)

// param item: N=C(N)c1nn(C2OC(CO)C(O)C2O)c2nc[nH]c(=O)c12 (stereo unspecified) ; yields the recorded call yes (1)
